- targetUnderTest: biotinylated CD59 (Homo sapiens, UniProt P13987)
- Construct: Recombinant soluble human CD59 with an additional C-terminal cysteine residue
- Sequence (P13987 26-102 limits assumed): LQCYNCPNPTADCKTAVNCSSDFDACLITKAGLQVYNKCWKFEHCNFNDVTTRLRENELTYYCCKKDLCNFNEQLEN
- assayNotes: mRNA-display cyclic peptide screen against CD59-biotin, NGS abundance after 6th selection round
- setupConditions: percentage of the pool averaged across the two sequencing samples, sheet R6
- Description: To discover novel non‐protein CD59 ligands, we screened a library of 10^12 cyclic peptides against CD59 using mRNA‐display (Figure 2a).^[ [23], [24], [25], [26], [27], [28], [29] ^] Briefly, an mRNA library was designed in which the start codon was reprogrammed from Met to N‐chloroacetyl‐D‐Tyr (ClAc‐D‐Tyr), followed by 10–12 randomly encoded natural amino acids, a Cys residue, a (GlySer)3 linker, and a stop codon. […]
Record true whenever Percentage Average is at 0.04% or higher; record false when lower.

{"sequenceString": "ARGGPTWSRG", "answerLabel": "false"}
{"sequenceString": "CFRYRVTPTSY", "answerLabel": "false"}
{"sequenceString": "CFARRLSSSHSL", "answerLabel": "true"}
{"sequenceString": "GYLNECHTLYTL", "answerLabel": "false"}
{"sequenceString": "CYGGRTYIYAWS", "answerLabel": "false"}

Q. Has CFVNRLSDSLSL a recorded Percentage Average greater than or equal to 0.04%?
A. true

Q. Has LGGRGCFRPCSAAAAAAARTGGG a recorded Percentage Average greater than or equal to 0.04%?
A. true

Q. Has GRLNECHAIWP a recorded Percentage Average greater than or equal to 0.04%?
A. true

Q. Has LCAENPLRPR a recorded Percentage Average greater than or equal to 0.04%?
A. true

Q. Has WIRGSRFYRVI a recorded Percentage Average greater than or equal to 0.04%?
A. true

Q. Has CAWGNRYIAYY a recorded Percentage Average greater than or equal to 0.04%?
A. true

Q. Has SSWAQVPCYS a recorded Percentage Average greater than or equal to 0.04%?
A. false

Q. Has WILGSRWWTQS a recorded Percentage Average greater than or equal to 0.04%?
A. true

Q. Has RAWGNRYIAYY a recorded Percentage Average greater than or equal to 0.04%?
A. false

Q. Has SAWGNRRIQYY a recorded Percentage Average greater than or equal to 0.04%?
A. false

Q. Has HVFGSRSFTRG a recorded Percentage Average greater than or equal to 0.04%?
A. true

Q. Has SWQNECFRLRT a recorded Percentage Average greater than or equal to 0.04%?
A. false

Q. Has LVTGNRDHTRG a recorded Percentage Average greater than or equal to 0.04%?
A. false

Q. Has IARGDRTFSFG a recorded Percentage Average greater than or equal to 0.04%?
A. false

###

- targetUnderTest: biotinylated CD59 (Homo sapiens, UniProt P13987)
- Construct: Recombinant soluble human CD59 with an additional C-terminal cysteine residue
- Sequence (P13987 26-102 limits assumed): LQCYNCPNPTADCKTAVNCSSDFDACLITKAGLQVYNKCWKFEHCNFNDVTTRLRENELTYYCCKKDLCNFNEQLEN
- assayNotes: mRNA-display cyclic peptide screen against CD59-biotin, NGS abundance after 6th selection round
- setupConditions: percentage of the pool averaged across the two sequencing samples, sheet R6
Mark Criterion met only when Percentage Average stays strictly below 0.03%. Values equal to the cut-off are Criterion not met.

{"sequenceString": "CFSRRTSVPNTT", "targetUnderTest": "biotinylated CD59 (Homo sapiens, UniProt P13987)", "answerLabel": "Criterion not met"}

Q. Is 0.03% strictly greater than the sequence's reported Percentage Average? sequence: EARGTKSFAYY
A. Criterion not met

Q. Is 0.03% strictly greater than the sequence's reported Percentage Average? sequence: YVRGDAWTVLG
A. Criterion met

Q. Is 0.03% strictly greater than the sequence's reported Percentage Average? sequence: FIRGNSTSVLF
A. Criterion not met

Q. Is 0.03% strictly greater than the sequence's reported Percentage Average? sequence: LWGAANYLKVIY
A. Criterion not met

Q. Is 0.03% strictly greater than the sequence's reported Percentage Average? sequence: QWNRWYGIDER
A. Criterion met

Q. Is 0.03% strictly greater than the sequence's reported Percentage Average? sequence: FITGNRDHTRG
A. Criterion met

Q. Is 0.03% strictly greater than the sequence's reported Percentage Average? sequence: CFSHRRLEYGV
A. Criterion not met

Q. Is 0.03% strictly greater than the sequence's reported Percentage Average? sequence: VIWGSRLATGG
A. Criterion met

Q. Is 0.03% strictly greater than the sequence's reported Percentage Average? sequence: GRLNECHVIWP
A. Criterion not met

Q. Is 0.03% strictly greater than the sequence's reported Percentage Average? sequence: WTCHLRHDGPHA
A. Criterion not met

###

I'd appreciate it if you could supply Percentage Seq II values for the items below.
- targetUnderTest: biotinylated CD59 (Homo sapiens, UniProt P13987)
- Construct: Recombinant soluble human CD59 with an additional C-terminal cysteine residue
- Sequence (P13987 26-102 limits assumed): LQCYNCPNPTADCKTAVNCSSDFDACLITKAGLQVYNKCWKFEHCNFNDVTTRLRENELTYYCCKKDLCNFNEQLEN
- assayNotes: mRNA-display cyclic peptide screen against CD59-biotin, NGS abundance after 6th selection round
- setupConditions: counts normalised by total counts of sample Seq II; percentage of the pool, sheet R6
Numbers only, in %.

Please report Percentage Seq II for every entry that follows.
1. SSWAQLPCKR
2. SIRGGRDYTRG
3. STWGNRNETRG

A.
1: 0.030; 2: 0.128; 3: 0.026

###

I'd appreciate it if you could supply Percentage Average values for the items below.
- targetUnderTest: biotinylated CD59 (Homo sapiens)
- Construct: Recombinant soluble human CD59 with an additional C-terminal cysteine residue
- Sequence (P13987 26-102 limits assumed): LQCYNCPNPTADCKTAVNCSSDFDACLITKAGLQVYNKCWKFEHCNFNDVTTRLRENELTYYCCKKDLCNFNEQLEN
- assayNotes: mRNA-display cyclic peptide screen against CD59-biotin, NGS abundance after 6th selection round
- setupConditions: percentage of the pool averaged across the two sequencing samples, sheet R6
One number for each entry, in %.

{"substance": "SIRGGRDYTRG", "Percentage Average [%]": 0.119}

Please report Percentage Average for every entry that follows.
1. FVTGNRDRTRG
2. CYGGRTFIYAWT
3. CFARRLSASFGT
4. SAWGNWQIQYY
5. ISYGDRSYTYY
6. SAWGNRQIQY+
7. HCWVRGSRDYT

A.
1: 0.022; 2: 0.039; 3: 0.969; 4: 0.027; 5: 0.113; 6: 0.021; 7: 0.037

Please report Percentage Average for every entry that follows.
1. WVYGSSTFRYQ
2. CYGSRTFIYAWS
3. GPRNECHSQFQN
4. CFANRLYGSDSH
5. TSYGSRVFAYF
6. CFNSRLHIGAV

A.
1: 0.030; 2: 0.022; 3: 0.089; 4: 0.033; 5: 0.031; 6: 0.050

Please report Percentage Average for every entry that follows.
1. FVRGDLHSVLG
2. VKYGNSNFVRG

A.
1: 0.051; 2: 0.659

Please report Percentage Average for every entry that follows.
1. CAWGNRHTAYY
2. CFARRLSASLGT
3. CYGGRTFIYACS
4. CFAARLSNGDS

A.
0.024
0.027
0.020
0.341

###

- targetUnderTest: biotinylated CD59 (Homo sapiens)
- Construct: Recombinant soluble human CD59 with an additional C-terminal cysteine residue
- Sequence (P13987 26-102 limits assumed): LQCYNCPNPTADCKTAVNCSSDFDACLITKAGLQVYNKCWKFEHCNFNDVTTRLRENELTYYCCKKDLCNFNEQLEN
- assayNotes: mRNA-display cyclic peptide screen against CD59-biotin, NGS abundance after 6th selection round
- setupConditions: average of Seq I and Seq II, sheet R6
I'd appreciate it if you could supply Percentage of the pool, averaged across the two sequencing samples values for the items below.
One number for each entry, in %.

{"sequenceString": "HVFGNRSYTRG", "observed": 0.013}
{"sequenceString": "CYGGRSFIYAWS", "observed": 0.012}
{"sequenceString": "WAKGSDTFTSG", "observed": 0.017}
{"sequenceString": "CFSRRLAAGAI", "observed": 0.010}
{"sequenceString": "CFVLRRNFEGT", "observed": 0.012}
{"sequenceString": "DCWVRGSRNYT", "observed": 0.014}

Please report Percentage of the pool, averaged across the two sequencing samples for every entry that follows.
1. FVTGNRDNTRG
2. LWGTRSFTLVRS
3. CYGGRTFIYTWS

A.
[0.016, 0.013, 0.013]

Please report Percentage of the pool, averaged across the two sequencing samples for every entry that follows.
1. CFSARAVLDGGW
2. FVTGNRDHTSG
3. CLRKTRDILSV
4. CFAGRLTIDAA
5. CFAYRTHTTAV
6. WRDRFGQCVL

A.
0.010
0.011
0.014
0.010
0.014
0.011

Noted for SWTWGNRSSVSG : its Percentage of the pool, averaged across the two sequencing samples reads 0.011
